What log10(IC50) was measured for each of the following?
biological target: Canine Cardiac Phosphodiesterase III; assay: Inhibition of Canine Cardiac Phosphodiesterase III enzyme; settings: concentration showing 50% inhibition of Canine Cardiac Phosphodiesterase III enzyme; read-out: IC₅₀
Scale: decimal log of IC50, IC50 in nM.

Query: Consider the compound CC(=Nc1ccc(-c2ccc(=O)[nH]n2)cc1)c1ccc(O)cc1O [Compound H] tested on Canine Cardiac Phosphodiesterase III; state its log10(IC50).
Reply: 2.15

Query: Consider the compound O=C1CCC(c2ccc(N=C(c3ccccc3)c3ccc(O)cc3O)cc2)=NN1 [Compound C] tested on Canine Cardiac Phosphodiesterase III; state its log10(IC50).
Reply: 1.28

Query: Consider the compound O=C1CCC(c2ccc(N=C(CCc3ccccc3)c3ccc(O)cc3O)cc2)=NN1 [Compound L] tested on Canine Cardiac Phosphodiesterase III; state its log10(IC50).
Reply: 0.30

Query: Consider the compound O=C1CCC(c2ccc(N=Cc3ccc(O)cc3O)cc2)=NN1 [Compound A] tested on Canine Cardiac Phosphodiesterase III; state its log10(IC50).
Reply: 3.23

Query: Consider the compound CCC(=Nc1ccc(C2=NNC(=O)CC2)cc1)c1ccc(O)cc1O [Compound E] tested on Canine Cardiac Phosphodiesterase III; state its log10(IC50).
Reply: 2.59

Query: Consider the compound CC1(C)C(=O)Nc2cc3nc(-c4ccncc4)[nH]c3cc21 [BM 14.478, reference compound] tested on Canine Cardiac Phosphodiesterase III; state its log10(IC50).
Reply: 2.97
